# one-hybrid fitness for binding NBS DNA per entry
B1: Caulobacter ParB omega fusion; a variant is named by its letters at X, in order, B8GW30 (parent)
chain: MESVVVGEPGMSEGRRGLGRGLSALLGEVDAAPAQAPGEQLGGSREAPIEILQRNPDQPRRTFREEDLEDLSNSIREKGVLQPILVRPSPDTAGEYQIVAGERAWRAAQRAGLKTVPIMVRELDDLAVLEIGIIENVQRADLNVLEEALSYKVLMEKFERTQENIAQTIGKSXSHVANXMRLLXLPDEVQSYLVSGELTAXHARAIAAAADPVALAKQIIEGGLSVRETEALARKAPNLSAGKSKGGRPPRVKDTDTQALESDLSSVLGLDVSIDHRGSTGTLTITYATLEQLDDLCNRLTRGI

Variants of: B1
Assay: one-hybrid fitness for binding NBS DNA (the Noc-binding site; scaled: cognate 1, non-cognate 0); higher = stronger binding
Details: with NBS DNA site
The full ranking holds about 81,000 sequences; the median of “one-hybrid fitness for binding NBS DNA” is about -0.1, and the highest 2% start at about 0.36. Many of the other results were omitted from the sample, so the highest values are more common in it than they were.
PROPERTY: one-hybrid fitness for binding NBS DNA

> print(dat)
    variant.key  measurement
 1         QHSI        ≤ 0.2
 2         GACL        ≤ 0.2
 3         QTCQ        ≤ 0.2
 4         YQVF        ≤ 0.2
 5         SSVH        ≤ 0.2
 6         HHHV        ≤ 0.2
 7         RKDP        ≤ 0.2
 8         QKVA        ≤ 0.2
 9         QSVA        ≤ 0.2
10         SRFC        ≤ 0.2
11         RKNN        ≤ 0.2
12         HPHL        ≤ 0.2
13         YYLT        ≤ 0.2
14         PKIC        ≤ 0.2
15         AYGD        ≤ 0.2
16         RKNS        0.606
17         MRFI        ≤ 0.2
18         RKDS        0.412
19         TPVD        ≤ 0.2
20         WYCV        0.366
21         QLKA        0.466
22         QCRQ        0.527
23         NMPC        ≤ 0.2
24         LCCW        ≤ 0.2
25         GMLG        ≤ 0.2
26         QLLA        ≤ 0.2
27         TCSP        ≤ 0.2
28         PSQV        ≤ 0.2
29         SSHP        ≤ 0.2
30         QKKA        0.577
31         QSAP        ≤ 0.2
32         WYVV        ≤ 0.2
33         QTYQ        ≤ 0.2
34         QRYQ         0.35
35         QAAT        0.401
36         LAAR        ≤ 0.2
37         RPAE        ≤ 0.2
38         QKAG        ≤ 0.2
39         IYIV        ≤ 0.2
40         LYYL        ≤ 0.2
41         TISM        ≤ 0.2
42         TMSQ        ≤ 0.2
43         RNYR        ≤ 0.2
44         QLAT        0.396
45         RNRR        0.504
46         STAF        ≤ 0.2
47         QAFT        0.326
48         TQQR        ≤ 0.2
49         PRAV        ≤ 0.2
50         VVCV        ≤ 0.2
51         RNVS        ≤ 0.2
52         QRRQ        0.496
53         QSAN        ≤ 0.2
54         QKAT        0.543
55         RNKH        0.237
56         QLFT        0.289
57         QYDV        ≤ 0.2
58         VNKV        ≤ 0.2
59         RLMT        0.335
60         QKFF        ≤ 0.2
61         LKYT        ≤ 0.2
62         NDST        ≤ 0.2
63         PLPM        ≤ 0.2
64         IVMP        ≤ 0.2
65         LALN        ≤ 0.2
66         PAKT        ≤ 0.2
67         VTPF        ≤ 0.2
68         YTAV        ≤ 0.2
69         LERS        ≤ 0.2
70         YGYV        ≤ 0.2
71         QKFS        0.277
72         IYPV         0.41
73         QLAH        ≤ 0.2
74         QPRQ        ≤ 0.2
75         DAAP        ≤ 0.2
76         AAPF        ≤ 0.2
77         RKND        ≤ 0.2
78         IFSI        ≤ 0.2
79         IIPP        ≤ 0.2
80         PRHI        ≤ 0.2
81         GMMA        ≤ 0.2
82         GDTA        ≤ 0.2
83         QPAT        ≤ 0.2
84         VYES        ≤ 0.2
85         LDND        ≤ 0.2
86         QLVA        ≤ 0.2
87         RNKS        0.489
88         PHEA        ≤ 0.2
89         RNDS        ≤ 0.2
90         HSKR        ≤ 0.2
91         SPCH        ≤ 0.2

Source listed as a collection of fitness landscapes (doi:10.1016/j.celrep.2020.107928).
